Cited source for all entries: the Human Domainome abundance scans (Beltran et al. 2025)

B1: POU domain, class 2, transcription factor 3, residues 186 to 260; numbered along this chain, Q9UKI9 (parent)
chain: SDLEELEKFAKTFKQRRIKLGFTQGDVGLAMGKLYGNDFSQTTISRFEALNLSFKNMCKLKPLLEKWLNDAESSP

Variants of: B1
assay: abundance fitness (aPCA) (normalised: wild type 0, dead -1); higher = more abundant; growth selection in yeast, the domain comes from the species named
experimental.setup: Homo sapiens
We use -0.05 as the dividing line for abundance fitness: on or above the line is True, below is False.

{"mutation.list": "N37C", "qualitative.label": "True"}
{"mutation.list": "E72A", "qualitative.label": "True"}
{"mutation.list": "L50G", "qualitative.label": "True"}
{"mutation.list": "S74R", "qualitative.label": "True"}
{"mutation.list": "F47A", "qualitative.label": "False"}
{"mutation.list": "K55M", "qualitative.label": "False"}
{"mutation.list": "E72F", "qualitative.label": "False"}
{"mutation.list": "R46H", "qualitative.label": "True"}
{"mutation.list": "N69D", "qualitative.label": "True"}
{"mutation.list": "K66S", "qualitative.label": "False"}
